Experiment: Volume of distribution at steady state in overnight fasted Sprague-Dawley rat at 20 mg/kg, iv by HPLC analysis
Assay type: ADME, organism-based
Settings: in vivo, read-out: Vdss
reported property: Vd (L/kg)

> print(dat)
                               entry.smiles  numeric.result
1  CN1CCN(c2ccc(Nc3ncc4cc(CNc5ccccc5)n(C5CCCC5)c4n3)cc2)CC1              16

---

System: Epidermal growth factor receptor (Homo sapiens), P00533 [L858R,T790M,C797S]
Sequence (P00533 whole entry T790M/C797S/L858R): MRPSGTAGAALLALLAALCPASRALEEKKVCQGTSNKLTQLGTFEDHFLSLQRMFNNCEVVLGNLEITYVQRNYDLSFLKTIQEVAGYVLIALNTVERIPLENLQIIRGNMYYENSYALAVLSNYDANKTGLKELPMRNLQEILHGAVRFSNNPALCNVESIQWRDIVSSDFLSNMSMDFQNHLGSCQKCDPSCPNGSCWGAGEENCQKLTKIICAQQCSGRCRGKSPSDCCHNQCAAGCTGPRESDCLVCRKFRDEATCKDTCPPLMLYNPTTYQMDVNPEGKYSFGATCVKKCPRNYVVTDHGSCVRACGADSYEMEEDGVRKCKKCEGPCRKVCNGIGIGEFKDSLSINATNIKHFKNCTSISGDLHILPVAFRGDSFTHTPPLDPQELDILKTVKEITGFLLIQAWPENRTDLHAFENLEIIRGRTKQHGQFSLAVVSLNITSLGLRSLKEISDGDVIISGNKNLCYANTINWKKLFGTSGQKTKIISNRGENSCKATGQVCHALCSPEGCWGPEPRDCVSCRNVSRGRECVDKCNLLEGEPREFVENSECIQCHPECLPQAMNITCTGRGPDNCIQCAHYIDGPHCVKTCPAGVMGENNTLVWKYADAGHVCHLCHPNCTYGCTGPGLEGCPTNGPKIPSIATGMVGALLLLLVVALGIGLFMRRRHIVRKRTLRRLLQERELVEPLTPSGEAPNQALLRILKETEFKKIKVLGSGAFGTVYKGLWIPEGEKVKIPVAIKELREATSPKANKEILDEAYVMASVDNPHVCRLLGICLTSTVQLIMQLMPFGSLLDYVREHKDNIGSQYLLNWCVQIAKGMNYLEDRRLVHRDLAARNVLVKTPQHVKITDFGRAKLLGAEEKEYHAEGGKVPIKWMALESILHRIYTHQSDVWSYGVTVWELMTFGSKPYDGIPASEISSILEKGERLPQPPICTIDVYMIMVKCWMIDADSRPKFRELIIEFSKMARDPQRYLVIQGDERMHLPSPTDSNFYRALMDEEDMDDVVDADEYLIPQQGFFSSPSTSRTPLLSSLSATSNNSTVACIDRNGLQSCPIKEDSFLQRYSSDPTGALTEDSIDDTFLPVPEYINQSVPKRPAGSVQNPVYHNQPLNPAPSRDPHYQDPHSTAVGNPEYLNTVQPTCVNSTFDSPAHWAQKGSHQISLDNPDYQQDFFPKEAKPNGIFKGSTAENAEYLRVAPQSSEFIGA
Test: Inhibition of EGFR L858R/T790M/C797S mutant (unknown origin) at 0.5 uM relative to control
reported property: inhibition (%)

> print(dat)
                                entry.smiles  unit.abbreviation  numeric.result
 1  C=CC(=O)Nc1cc(Nc2ncc3cc(C(=O)Nc4cccc(C(F)(F)F)c4)n(C4CCCC4)c3n2)c(OC)cc1N(C)CCN(C)C                  %             4.7
 2  C=CC(=O)Nc1cc(Nc2ncc3cc(C(=O)Nc4cccc(N(C)C)c4)n(C4CCCC4)c3n2)c(OC)cc1N(C)CCN(C)C                  %              12
 3  C=CC(=O)Nc1cc(Nc2ncc3cc(C(=O)Nc4ccccc4)n(C4CCCC4)c3n2)c(OC)cc1N1CCC(N2CCN(C)CC2)CC1                  %              16
 4  C=CC(=O)Nc1cc(Nc2ncc3cc(C(=O)Nc4cccc(O)c4)n(C4CCCC4)c3n2)c(OC)cc1N(C)CCN(C)C                  %             5.2
 5  C=CC(=O)Nc1cc(Nc2ncc3cc(C(=O)Nc4cccc(OC)c4)n(C(C)C)c3n2)c(OC)cc1N(C)CCN(C)C                  %             9.3
 6  C=CC(=O)Nc1cc(Nc2ncc3cc(C(=O)Nc4ccccc4)n(C4CCCC4)c3n2)c(OC)cc1N1CCN(C(C)C)CC1                  %              18
 7  C=CC(=O)Nc1cc(Nc2ncc3cc(C(=O)Nc4cccc(OC)c4)n(C4CC4)c3n2)c(OC)cc1N(C)CCN(C)C                  %               7
 8  C=CC(=O)Nc1cc(Nc2ncc3cc(C(=O)Nc4ccc5c(c4)OCO5)n(C4CCCC4)c3n2)c(OC)cc1N(C)CCN(C)C                  %             0.5
 9  C=CC(=O)Nc1cc(Nc2ncc3cc(CNc4c(C)cccc4C)n(C4CCCC4)c3n2)c(OC)cc1N(C)CCN(C)C                  %              23
10  C=CC(=O)Nc1cc(Nc2ncc3cc(C(=O)Nc4cccc(OC)c4)n(C4CCCC4)c3n2)c(OC)cc1N1CCN(CCOC)CC1                  %            -2.3
11  C=CC(=O)Nc1cc(Nc2ncc3cc(C(=O)Nc4ccc(F)c(Cl)c4)n(C4CCCC4)c3n2)c(OC)cc1N(C)CCN(C)C                  %             8.1
12  C=CC(=O)Nc1cc(Nc2ncc3cc(C(=O)Nc4cc(OC)c(OC)c(OC)c4)n(C4CCCC4)c3n2)c(OC)cc1N(C)CCN(C)C                  %             3.1
13  C=CC(=O)Nc1cc(Nc2ncc3cc(C(=O)Nc4cccc(OC)c4)n(C)c3n2)c(OC)cc1N(C)CCN(C)C                  %              -5
14  C=CC(=O)Nc1cc(Nc2ncc3cc(C(=O)NC4CCCCC4)n(C4CCCC4)c3n2)c(OC)cc1N(C)CCN(C)C                  %             4.8
15  C=CC(=O)Nc1cc(Nc2ncc3cc(C(=O)Nc4cccc(OC)c4)n(C4CCCCC4)c3n2)c(OC)cc1N(C)CCN(C)C                  %             1.1
